experiment: in vitro; details: human
READOUT TYPE: CC50 at 24 h

Which CC50 at 24 h is reported for this molecule? C[C@]12CC[C@H](O)C[C@H]1CC[C@@H]1[C@@H]2CC[C@]2(C)[C@@H](C3=CC(=O)OC3)CC[C@]12O [Digitoxigenin, digitoxigenin, reference compound] > 5 µM

---

assay: in vitro; details: dog
READOUT TYPE: CC50 at 24 h

Can you share its CC50 at 24 h? I mean this compound: C[C@]12CC[C@H](O)C[C@H]1CC[C@@H]1[C@@H]2CC[C@]2(C)[C@@H](C3=CC(=O)OC3)CC[C@]12O [Digitoxigenin, digitoxigenin, reference compound] > 5 µM
